Test system: MRSA (B042 V2E1 A)
test.name: microbe, parasite or virus in culture
Assay type: cell-based, methicillin-resistant Staphylococcus aureus
experimental.conditions: B042 V2E1 A, 24 h
No end group written: not given here.
// reported MIC for each item listed

substance	MIC
FLPKIIGKLSSKLPKIF-NH2 [Temporin-PKE-4K]	16 µM
FLPKIIGKLSSLLPKIF-NH2 [Temporin-PKE-3K]	2 µM
FLPLIIGALSSKLPKIF-NH2 [Temporin-PKE-K12]	4 µM
FLPLIIGKLSSLLPKIF-NH2 [Temporin-PKE-2K]	2 µM

* * *

// reported MBIC for each item listed
Tested on: K. pneumoniae (ATCC 43816) biofilm
Format: cell-based, Klebsiella pneumoniae
experimental.conditions: ATCC 43816, 24 h
Experimental: The anti-biofilm activities of the peptides against S. aureus (ATCC 6538), MRSA (NCTC 12493), E. faecalis (NCTC 12697), E. coli (ATCC CRM 8739), K. pneumoniae (ATCC 43816), and P. aeruginosa (ATCC CRM 9027), were evaluated. […] The solutions were transferred to a new microplate, and the absorbance of each well was measured using a microplate reader (EL808, Biolise BioTek, Winooski, VT, USA) set to 595 nm wavelength. […]
No end group written: not given here.
measured.attribute: MBIC

substance	measured.attribute	observed
FLPLIIGALSSKLPKIF-NH2 [Temporin-PKE-K12]	MBIC	512/>512 μM
FLPKIIGKLSSLLPKIF-NH2 [Temporin-PKE-3K]	MBIC	32 µM
FLPLIIGALSSLLPKIF-NH2 [Temporin-PKE]	MBIC	>512 µM
FLPLIIGKLSSLLPKIF-NH2 [Temporin-PKE-2K]	MBIC	128 µM
FLPKIIGKLSSKLPKIF-NH2 [Temporin-PKE-4K]	MBIC	256 µM
